# test-method-notes: Dog cerebrospinal fluid (CSF) pharmacokinetic properties (Example 5)
# Type: in vivo
# details: male, beagle, CSF, 1 mg/kg PO, @ 2 h, read-out: CSF Conc.
property-measured: concentration at 2 h
Number plus unit, in that order.

Asked: # lookup: concentration at 2 h of Fc1ccccc1Cc1nc(-c2nc(C(F)(F)F)n[nH]2)cn2ccnc12
Given back: 34 nM

----------
# target-or-system: sGC enzyme (Homo sapiens, UniProt Q02108+Q02153)
# Construct: sGC enzyme activity values in HEK cells, determined by the GloSensor assay; host or cells: HEK293 cells stably expressing GloSensor 40F cGMP biosensor
# test-method-notes: cGMP GloSensor cell-based assay, 384-well format (Example 2a)
# details: HEK293 GloSensor 40F cGMP cells; 10 μM DETA-NONOate; 50% of high control (30 μM Compound Y); read-out: Abs EC50
property-measured: EC50

Examples with answers:
Fc1ccccc1Cc1nc(-c2nc(C(F)(F)F)n[nH]2)cn2c(Cl)cnc12 :: ≤ 100 nM
Cc1nc(-c2cn3ccnc3c(Cc3ccccc3F)n2)nn1CCCCF :: 100 to 1000 nM
Fc1ccc(F)c(Cc2nc(-c3nc(C(F)(F)F)n[nH]3)cn3ccnc23)c1 :: ≤ 100 nM
Cc1c(F)cc(Cc2nc(-c3nc(C(F)(F)F)n[nH]3)cn3ccnc23)cc1F :: ≤ 100 nM

As a next step, examine the compound that follows.
Asked: # lookup: EC50 of FC(F)(F)c1n[nH]c(-c2cn3ccnc3c(Cc3ccccc3)n2)n1
Given back: 100 to 1000 nM

----------
Measured pEC50 of individual entries
# target-or-system: sGC enzyme (Homo sapiens, UniProt Q02108+Q02153)
# Construct: sGC enzyme activity values in HEK cells, determined by the GloSensor assay; host or cells: HEK293 cells stably expressing GloSensor 40F cGMP biosensor
# Sequence (Q02153 1-619): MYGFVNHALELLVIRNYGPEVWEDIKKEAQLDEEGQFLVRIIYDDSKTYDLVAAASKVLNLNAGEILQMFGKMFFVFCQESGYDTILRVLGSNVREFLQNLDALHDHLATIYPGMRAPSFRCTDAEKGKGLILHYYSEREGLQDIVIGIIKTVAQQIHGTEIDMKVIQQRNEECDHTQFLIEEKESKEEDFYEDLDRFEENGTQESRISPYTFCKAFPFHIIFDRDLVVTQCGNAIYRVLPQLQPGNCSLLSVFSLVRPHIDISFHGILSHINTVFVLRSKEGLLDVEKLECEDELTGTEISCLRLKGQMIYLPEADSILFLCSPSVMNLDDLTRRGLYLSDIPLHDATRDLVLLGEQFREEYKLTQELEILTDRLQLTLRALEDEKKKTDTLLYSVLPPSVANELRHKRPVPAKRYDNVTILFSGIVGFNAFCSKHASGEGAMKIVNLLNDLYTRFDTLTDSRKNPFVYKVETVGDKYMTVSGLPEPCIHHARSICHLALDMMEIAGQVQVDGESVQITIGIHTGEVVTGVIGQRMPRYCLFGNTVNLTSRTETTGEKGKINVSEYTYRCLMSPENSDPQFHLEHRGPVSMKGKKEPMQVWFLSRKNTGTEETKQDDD
# Sequence (Q02108 1-690): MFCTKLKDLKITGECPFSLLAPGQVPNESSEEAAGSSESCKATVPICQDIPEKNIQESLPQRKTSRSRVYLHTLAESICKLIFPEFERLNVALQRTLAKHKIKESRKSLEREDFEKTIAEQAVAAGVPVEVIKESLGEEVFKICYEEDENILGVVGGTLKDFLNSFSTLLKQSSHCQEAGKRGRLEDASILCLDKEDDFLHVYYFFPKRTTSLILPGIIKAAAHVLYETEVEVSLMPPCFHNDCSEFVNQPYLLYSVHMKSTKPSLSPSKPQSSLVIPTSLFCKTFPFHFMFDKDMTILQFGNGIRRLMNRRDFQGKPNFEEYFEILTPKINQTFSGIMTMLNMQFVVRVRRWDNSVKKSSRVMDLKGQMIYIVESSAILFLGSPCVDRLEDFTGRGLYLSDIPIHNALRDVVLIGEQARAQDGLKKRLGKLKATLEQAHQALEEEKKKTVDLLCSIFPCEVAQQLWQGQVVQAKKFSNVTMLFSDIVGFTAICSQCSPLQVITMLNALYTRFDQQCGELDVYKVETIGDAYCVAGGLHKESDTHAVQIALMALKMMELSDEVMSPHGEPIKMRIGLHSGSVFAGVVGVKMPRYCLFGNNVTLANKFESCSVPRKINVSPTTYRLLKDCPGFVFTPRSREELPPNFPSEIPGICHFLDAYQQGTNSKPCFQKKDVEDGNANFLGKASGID
# test-method-notes: cGMP GloSensor cell-based assay, 384-well format (Example 2a)
# details: HEK293 GloSensor 40F cGMP cells; 10 μM DETA-NONOate; 50% of high control (30 μM Compound Y); read-out: Abs EC50
pEC50: −log10 of the molar value.

Fc1ccccc1Cc1nc(-c2nc(C(F)F)n[nH]2)cn2ccnc12 [Compound I-14] :: ≥ 7.00

Asked: # lookup: pEC50 of Cc1cn2cc(-c3nc(C(F)(F)F)n[nH]3)nc(Cc3ccccc3F)c2n1 [Compound I-31]
Given back: 6.00 to 7.00

Asked: # lookup: pEC50 of Cc1ccc(Cc2nc(-c3nc(C(F)F)n[nH]3)cn3ccnc23)cc1F [Compound I-28]
Given back: ≥ 7.00

Asked: # lookup: pEC50 of Fc1cccc(Cc2nc(-c3nc(C(F)F)n[nH]3)cn3ncnc23)c1F [Compound I-17]
Given back: ≥ 7.00

Asked: # lookup: pEC50 of Cc1nc(-c2cn3ccnc3c(Cc3ccccc3F)n2)nn1CCC(F)(F)F [Compound I-54]
Given back: 6.00 to 7.00

Asked: # lookup: pEC50 of Fc1ccccc1Cc1nc(-c2nc(C(F)(F)F)n[nH]2)cn2cnnc12 [Compound I-72]
Given back: < 6.00

Asked: # lookup: pEC50 of Fc1ccc(F)c(Cc2nc(-c3nc(C(F)(F)F)n[nH]3)cn3ncnc23)c1 [Compound I-33]
Given back: ≥ 7.00

Asked: # lookup: pEC50 of Fc1cccc(Cc2nc(-c3nc(C(F)F)n[nH]3)cn3ncnc23)c1 [Compound I-21]
Given back: ≥ 7.00

Asked: # lookup: pEC50 of Fc1ccccc1Cc1nc(-c2nc(C3CC3(F)F)n[nH]2)cn2ccnc12 (racemic) [Compound I-64]
Given back: 6.00 to 7.00
